Assay: Lipophilicity, log P of the compound
Type: physicochemical
Conditions: octanol/water; read-out: logP
PARAMETER: logP

1) CN(C)CCOc1ccc(C(=O)N2C/C(=C\c3ccc([N+](=O)[O-])cc3)C(=O)/C(=C/c3ccc([N+](=O)[O-])cc3)C2)cc1.Cl	5.5
2) CC[N+](C)(CC)CCOc1ccc(C(=O)N2C/C(=C\c3ccc(Cl)cc3)C(=O)/C(=C/c3ccc(Cl)cc3)C2)cc1.[I-]	3.2
3) COc1ccc(C(=O)N2C/C(=C\c3ccc(Cl)cc3)C(=O)/C(=C/c3ccc(Cl)cc3)C2)cc1	6
4) Cc1ccc(/C=C2\CN(C(=O)c3ccc(OCCN4CCOCC4)cc3)C/C(=C\c3ccc(C)cc3)C2=O)cc1.Cl	6.3
5) CC[N+](C)(CC)CCOc1ccc(C(=O)N2C/C(=C\c3ccc(C)cc3)C(=O)/C(=C/c3ccc(C)cc3)C2)cc1.[I-]	3.1
6) Cl.O=C1/C(=C/c2ccc([N+](=O)[O-])cc2)CN(C(=O)c2ccc(OCCN3CCOCC3)cc2)C/C1=C\c1ccc([N+](=O)[O-])cc1	5
7) Cl.O=C1/C(=C/c2ccccc2)CN(C(=O)c2ccc(OCCN3CCOCC3)cc2)C/C1=C\c1ccccc1	5.4
8) CC[N+](C)(CC)CCOc1ccc(C(=O)N2C/C(=C\c3ccccc3)C(=O)/C(=C/c3ccccc3)C2)cc1.[I-]	2.2

The reported numbers originate from ChEMBL document CHEMBL1157157.
